- TARGET OR TEST SYSTEM: Bile acid receptor (Homo sapiens, UniProt Q96RI1)
- Sequence (Q96RI1 whole entry, the tested form may be a part): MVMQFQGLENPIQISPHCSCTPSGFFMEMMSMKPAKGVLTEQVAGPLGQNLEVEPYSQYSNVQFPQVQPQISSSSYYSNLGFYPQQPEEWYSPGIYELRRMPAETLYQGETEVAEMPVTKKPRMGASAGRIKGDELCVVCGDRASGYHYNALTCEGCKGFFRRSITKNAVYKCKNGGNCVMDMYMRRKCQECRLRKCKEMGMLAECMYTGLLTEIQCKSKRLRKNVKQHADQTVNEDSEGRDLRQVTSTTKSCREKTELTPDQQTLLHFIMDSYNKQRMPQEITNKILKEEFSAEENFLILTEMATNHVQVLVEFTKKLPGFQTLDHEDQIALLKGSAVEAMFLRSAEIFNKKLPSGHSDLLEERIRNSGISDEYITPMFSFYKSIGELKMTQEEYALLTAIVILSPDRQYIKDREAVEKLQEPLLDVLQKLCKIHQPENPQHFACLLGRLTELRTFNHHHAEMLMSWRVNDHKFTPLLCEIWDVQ
- ASSAY DETAILS: FRET Activity Assay: The human FXRalpha LBD was expressed in E. coli strain BL21(DE3) as an N-terminally GST tagged fusion protein. The DNA encoding the FXR ligand binding domain was cloned into vector pDEST15 (Invitrogen). Expression was under control of an IPTG inducible T7 promoter. The amino acid boundaries of the ligand binding domain were amino acids 187-472 of Database entry NM_005123 (RefSeq). Expression and purification of the FXR-LBD: An overnight preculture of a transformed E. coli strain was diluted 1:20 in LB-Ampicillin medium and grown at 30° C. to an optical density of =0.4-0.6. Gene expression was then induced by addition of 0.5 mM IPTG. Cells were incubated an additional 6 h at 30° C., 180 rpm. Cells were collected by centrifugation (7000×g, 7 min, rt). Per liter of original cell culture, cells were resuspended in 10 mL lysis buffer (50 mM Glucose, 50 mM Tris pH 7.9, 1 mM EDTA and 4 mg/mL lysozyme) and left on ice for 30 min. Cells were then subjected to sonication and cell debris removed via centrifugation (22000×g, 30 min, 4° C.). Per 10 mL of supernatant 0.5 mL prewashed Glutathione 4B sepharose slurry (Qiagen) was added and the suspension kept slowly rotating for 1 h at 4° C. Glutathione 4B sepharose beads were pelleted by centrifugation (2000× g, 15 sec, 4° C.) and washed twice in wash buffer (25 mM Tris, 50 mM KCl, 4 mM MgCl2 and IM NaCl). The pellet was resuspended in 3 mL elution buffer per liter of original culture (elution buffer: 20 mM Tris, 60 mM KCl, 5 mM MgCl2 and 80 mM glutathione added immediately prior to use as powder). The suspension was left rotating for 15 min at 4° C., the beads pelleted and eluted again with half the volume of elution buffer than the first time. The eluates were pooled and dialysed overnight in 20 mM Hepes buffer (pH 7.5) containing 60 mM KCl, 5 mM MgCl2 as well as 1 mM dithiothreitol and 10% (v/v) glycerol. The protein was analysed by SDS-Page.
pIC50: −log10 of the molar value.
OBSERVED PROPERTY: pIC50

I. O=C(O)c1cc(F)c2nc(C3(O)C4COCC3CC(OCc3c(-c5c(Cl)cccc5Cl)noc3C3CC3)C4)sc2c1 (configuration not stated)
II. O=C(O)c1ccc2nc(C3(O)C4COCC3CC(OCc3c(-c5c(Cl)cccc5Cl)noc3C3CC3)C4)sc2c1 (configuration not stated)
Between I and II , whose recorded pIC50 is greater? Write the label of whichever entry you select.
I
(I: 7.72, II: 7.52)
